assay-details: Effect of temperature (and pH) on the stability of the solution (purity)
Type: physicochemical
test-settings: 7% solution in water, pH 3.7, day 21, 40° C.
recorded-metric: Purity(%) at day 21 (40° C.)
Use % as the unit, but write only the number.

// solved cases for Purity(%) at day 21 (40° C.) follow
> print(dat)
                                   molecule               recorded.metric  observed.value
1  CCN(CC)CCOC(=O)CC1=C(C)C(=Cc2ccc([S+](C)[O-])cc2)c2ccc(F)cc21.Cl (stereo not drawn)  Purity(%) at day 21 (40° C.)            55.5
2  CCN(CC)CCOC(=O)C(C)c1ccc(-c2ccccc2)c(F)c1.Cl (racemic)  Purity(%) at day 21 (40° C.)            64.5
3  CCN(CC)CCOC(=O)COc1nn(Cc2ccccc2)c2ccccc12.Cl  Purity(%) at day 21 (40° C.)            55.6
4  CCN(CC)CCOC(=O)COC(=O)Cc1c(C)n(C(=O)c2ccc(Cl)cc2)c2ccc(OC)cc12.Cl  Purity(%) at day 21 (40° C.)            57.6
5    CCN(CC)CCOC(=O)CCc1ccc2cc(OC)ccc2c1.Cl  Purity(%) at day 21 (40° C.)            59.9
6  CCN(CC)CCOC(=O)CCc1nc(-c2ccccc2)c(-c2ccccc2)o1.Cl  Purity(%) at day 21 (40° C.)            50.6
7  CCN(CC)CCOC(=O)Cc1c(C)n(C(=O)c2ccc(Cl)cc2)c2ccc(OC)cc12.Cl  Purity(%) at day 21 (40° C.)            57.9
8  CCN(CC)CCOC(=O)Cc1ccc(C(=O)c2ccc(C)cc2)n1C.Cl  Purity(%) at day 21 (40° C.)            56.6

Shift focus to the following entry.
QUERY: Item CCN(CC)CCOC(=O)C(C)c1ccc2oc(-c3ccc(Cl)cc3)nc2c1.Cl (stereo not drawn) : provide Purity(%) at day 21 (40° C.)
RESULT: 51.9

----------
assay-details: Effect of concentration on the stability of the solution (purity over time)
test-settings: 20 wt %; in water at 25° C.
recorded-metric: Purity at hr 0 (%)
Use % as the unit, but write only the number.

> print(dat)
                                   compound  observed.value
1    CCN(CC)CCOC(=O)CCc1ccc2cc(OC)ccc2c1.Cl            98.4
2  CCN(CC)CCOC(=O)Cc1c(C)n(C(=O)c2ccc(Cl)cc2)c2ccc(OC)cc12.Cl            98.6

Shift focus to the following entry.
QUERY: Item CCN(CC)CCOC(=O)C(C)c1ccc2oc(-c3ccc(Cl)cc3)nc2c1.Cl (stereo not shown) : provide Purity at hr 0
RESULT: 98.5

----------
As shown below, each of these compounds has a reported Purity (%) at hr 0 value.
assay-details: Effect of concentration on the stability of the solution (purity over time)
test-settings: 10 wt % in 50% ethanol, 25° C.
Use % as the unit, but write only the number.

> print(dat)
                                   compound     recorded.metric  observed.value
1  CC(C)(C)OC(=O)c1ccccc1 [t-Butyl benzoate, reference compound]  Purity (%) at hr 0            97.8
2  CCOC(=O)c1ccccc1 [Ethyl benzoate, reference compound]  Purity (%) at hr 0            97.9

QUERY: Item CC(C)OC(=O)C(N)Cc1ccccc1 (centres unmarked) [Isopropyl 2-amino-3-phenylpropanoate, reference compound] : provide Purity (%) at hr 0
RESULT: 98.8

QUERY: Item CC(C)(C)OC(=O)C(N)Cc1ccccc1 (centres unmarked) [t-Butyl 2-amino-3-phenylpropanoate, reference compound] : provide Purity (%) at hr 0
RESULT: 98.2

QUERY: Item CC(C)OC(=O)c1ccccc1 [Isopropyl benzoate, reference compound] : provide Purity (%) at hr 0
RESULT: 98.5

----------
assay-details: Effect of concentration on the stability of the solution (purity over time)
test-settings: 0.1 wt %; in water at 25° C.
As shown below, each of these compounds has a reported Purity at Day 28 value.
Use % as the unit, but write only the number.

> print(dat)
                                   compound  observed.value
1  CCN(CC)CCOC(=O)CC1=C(C)C(=Cc2ccc([S+](C)[O-])cc2)c2ccc(F)cc21.Cl (centres unmarked)            78.9

Shift focus to the following entry.
QUERY: Item CCN(CC)CCOC(=O)CCc1nc(-c2ccccc2)c(-c2ccccc2)o1.Cl : provide Purity at Day 28
RESULT: 65.5

----------
assay-details: Effect of concentration on the stability of the solution (purity over time)
test-settings: 3 wt % in 50% ethanol, 25° C.
recorded-metric: Purity (%) at Day 3

// solved cases for Purity (%) at Day 3 follow
> print(dat)
                                   molecule  observed.value
1  CC(C)(C)OC(=O)c1ccccc1 [t-Butyl benzoate, reference compound]            1.1%
2  CCOC(=O)c1ccccc1 [Ethyl benzoate, reference compound]           97.8%
3  CC(C)OC(=O)c1ccccc1 [Isopropyl benzoate, reference compound]           98.4%
4  CC(C)(C)OC(=O)C(N)Cc1ccccc1 (centres unmarked) [t-Butyl 2-amino-3-phenylpropanoate, reference compound]           94.6%

Shift focus to the following entry.
QUERY: Item CC(C)OC(=O)C(N)Cc1ccccc1 (centres unmarked) [Isopropyl 2-amino-3-phenylpropanoate, reference compound] : provide Purity (%) at Day 3
RESULT: 98.2%

----------
assay-details: Effect of temperature (and pH) on the stability of the solution (purity)
Type: physicochemical
test-settings: 7% solution in water, pH 5.0, day 21, 40° C.
As shown below, each of these molecules has a reported Purity(%) at day 21 (40° C.) value.
Please answer using the number first and the unit second.

> print(dat)
                                   molecule  observed.value
1  CCN(CC)CCOC(=O)Cc1c(C)n(C(=O)c2ccc(Cl)cc2)c2ccc(OC)cc12.Cl     42.8 ± 0.3%
2  CCN(CC)CCOC(=O)COC(=O)Cc1c(C)n(C(=O)c2ccc(Cl)cc2)c2ccc(OC)cc12.Cl     39.8 ± 0.3%
3  CCN(CC)CCOC(=O)C(C)c1ccc(-c2ccccc2)c(F)c1.Cl (racemic)     50.1 ± 0.3%
4  CCN(CC)CCOC(=O)Cc1ccc(C(=O)c2ccc(C)cc2)n1C.Cl     37.8 ± 0.3%

Shift focus to the following entry.
QUERY: Item CCN(CC)CCOC(=O)C(C)c1ccc2oc(-c3ccc(Cl)cc3)nc2c1.Cl (centres unmarked) : provide Purity(%) at day 21 (40° C.)
RESULT: 39.8 ± 0.2%

----------
assay-details: Effect of concentration on the stability of the solution (purity over time)
test-settings: 0.01 wt %; in water at 25° C.
As shown below, each of these molecules has a reported Purity at hr 0 value.
Use % as the unit, but write only the number.

// solved cases for Purity at hr 0 follow
> print(dat)
                                   molecule  observed.value
1  CCN(CC)CCOC(=O)Cc1ccc(C(=O)c2ccc(C)cc2)n1C.Cl            97.4
2  CCN(CC)CCOC(=O)C(C)c1ccc2oc(-c3ccc(Cl)cc3)nc2c1.Cl (stereo not shown)            97.8
3  CCN(CC)CCOC(=O)CC1=C(C)C(=Cc2ccc([S+](C)[O-])cc2)c2ccc(F)cc21.Cl (stereo not shown)            97.1
4  CCN(CC)CCOC(=O)Cc1sc(-c2ccccc2)nc1-c1ccc(Cl)cc1.Cl            98.4

QUERY: Item CCN(CC)CCOC(=O)CCc1nc(-c2ccccc2)c(-c2ccccc2)o1.Cl : provide Purity at hr 0
RESULT: 97.8

QUERY: Item CCN(CC)CCOC(=O)CCc1ccc2cc(OC)ccc2c1.Cl : provide Purity at hr 0
RESULT: 97.7

QUERY: Item CCN(CC)CCOC(=O)Cc1c(C)n(C(=O)c2ccc(Cl)cc2)c2ccc(OC)cc12.Cl : provide Purity at hr 0
RESULT: 98.0

----------
assay-details: Effect of concentration on the stability of the solution (purity over time)
test-settings: 5 wt %; in water at 25° C.
recorded-metric: Purity at Day 3 (%)
Use % as the unit, but write only the number.

> print(dat)
                                   molecule  observed.value
1  CCN(CC)CCOC(=O)Cc1c(C)n(C(=O)c2ccc(Cl)cc2)c2ccc(OC)cc12.Cl            98.3
2  CCN(CC)CCOC(=O)CCc1nc(-c2ccccc2)c(-c2ccccc2)o1.Cl            98.2
3  CCN(CC)CCOC(=O)Cc1ccc(C(=O)c2ccc(C)cc2)n1C.Cl            97.2
4    CCN(CC)CCOC(=O)CCc1ccc2cc(OC)ccc2c1.Cl            98.2
5  CCN(CC)CCOC(=O)Cc1sc(-c2ccccc2)nc1-c1ccc(Cl)cc1.Cl            98.4

QUERY: Item CCN(CC)CCOC(=O)C(C)c1ccc2oc(-c3ccc(Cl)cc3)nc2c1.Cl (stereo not shown) : provide Purity at Day 3
RESULT: 98.0

QUERY: Item CCN(CC)CCOC(=O)CC1=C(C)C(=Cc2ccc([S+](C)[O-])cc2)c2ccc(F)cc21.Cl (stereo not shown) : provide Purity at Day 3
RESULT: 97.3
